Test: DL50 in the rat, single oral application
Settings: in vivo, observation period 10 days
Reported Metric: LD50 at 240 h (mg/kg)
One number for each entry, in mg/kg.

# LD50 at 240 h (compound: Cc1cc(C(=O)NC2=NC(C)CC2(c2ccccc2)c2ccccc2)[nH]n1 (stereo not shown) ) is 8000
